Experiment: physchem
Assay type: physicochemical
Peptide text beside a SMILES is read from it.
property.label: solubility

compound	solubility
CC(C)C[C@H](NC(=O)[C@@H](N)Cc1ccccc1)C(=O)NCC(=O)NC(C)(c1ccc(OCCCCCCCCCCCO[Si](C(C)C)(C(C)C)C(C)C)cc1)c1ccc(OCCCCCCCCCCCO[Si](C(C)C)(C(C)C)C(C)C)cc1	≥ 838000 µM

Please look up its solubility: CC(C)C[C@H](NC(=O)[C@@H](N)Cc1ccccc1)C(=O)NCC(N)=O [H-Phe-Leu-Gly-NH2, reference compound] (H-Phe-Leu-Gly-NH2)
200 µM

Data provenance is patent US11542287B2.
